METHOD SUMMARY: qHTS for Inhibitors of human tyrosyl-DNA phosphodiesterase 1 (TDP1): qHTS in cells in absence of CPT; note: nearly all actives have a fitted effect of over 55% in size; note: potency is the fitted concentration of half-maximal effect
MEASUREMENT SETUP: DT40 Tdp1-/- hTDP1 cells, no CPT, ATP luminescence, 48 h
The campaign covered roughly 420,000 compounds. About 64,000 (15%) were called active. Not shown: some 27% with an inconclusive outcome. Not all results are given here.
MEASURED ENDPOINT: Potency

Potency reading for `COc1ccc(NC(=O)CN(C)C(=O)c2ccc(COc3ccccc3)o2)cc1` : inactive

Item: `CCCN(CCC)CCCNC(=O)CNC(=O)c1nn(-c2ccc(OC)cc2)c(=O)c2ccccc12` | Potency: inactive

Measured Potency, `Cc1cccc(-n2c(O)c(C=Nc3ccccc3N)c(=O)[nH]c2=O)c1` : inactive

Lookup result for `CCN(CCCNC(=O)c1cc(Nc2ccc(OC)cc2)nc2ccccc12)c1cccc(C)c1` ; measured Potency: 20.6 µM (active)

Value of Potency reported for the molecule `CCOc1ccc(OCc2ccc(C(=O)N(C)c3ccccc3)o2)cc1` is 14.6 µM (active)

Let us examine a further case.
Memo: `COc1ccc(NC(=O)CCNC(=O)Cn2ccc3ccccc3c2=O)c(OC)c1` , reported Potency: inactive
